experiment-summary: blockers of DNA damage checkpoint Chk1 activation – imaging, HeLa, hydroxyurea, phospho-Chk1 nuclear intensity, primary screen (AID 1187); also: test concentration not given here
experimental-parameters: hydroxyurea-induced phospho-Chk1 immunofluorescence imaging, higher = more signal
Examples of compounds with documented z-score follow.
No unit in the answer, only the number.

Entry under review: O=C(O)C1N=C(c2ccc(OCCCO)cc2)N(c2ccccc2)O1 (configuration not stated) . Reported z-score?
-0.229

Thanks! And C=CCN(Cc1ccccc1)C(=O)C(c1cccs1)N(C(=O)/C=C\C(=O)O)c1ccc(CCOCCO)cc1 (configuration not stated) ?
-0.565

Thanks! And COc1ccc(CCNC(=O)[C@@]2(c3ccc([N+](=O)[O-])cc3)CC(=O)N(CC34CC5CC(CC(C5)C3)C4)[C@@H]2c2ccc(CO)cc2I)cc1 ?
0.022

Thanks! And O=C1O[C@@H](c2ccccc2)[C@@H](c2ccccc2)N2[C@@H](c3ccccc3OCCO)[C@]3(C(=O)Nc4ccccc43)[C@@H](C(=O)O)[C@H]12 ?
0.5

Thanks! And CN1C(=O)C2C=CC(C(O)c3c(F)cccc3Cl)N(NC(=O)OC(C)(C)C)C2C1=O (configuration not stated) ?
0.0545

More entries:
Entry under review: CS(=O)(=O)CCOC(=O)C1=CC(CCCO)=CC(c2ccc(CN3CCCC3)cc2)N(Cc2cccc(OC(F)(F)F)c2)C=C1C(=O)OCCS(C)(=O)=O (configuration not stated) . Reported z-score?
1.28

Thanks! And CN(C)CCCCNC(=O)[C@@H]1C[C@@H]2C(=O)N[C@@H](CCCCN)C(=O)N2[C@@H]1c1ccc(O)cc1 ?
-0.115

----------
experiment-summary: hepatitis C replication reporter changes, two-sided – Huh7 cells, luciferase reporter, HCV replication inhibitor project, primary screen (AID 1109);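 also: huh7 hepatoma cells harbouring a luciferase neomycin HCV replicon reporter; luciferase luminescence as measure of HCV replicon replication; test concentration not given here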
experimental-parameters: Huh7 HCV replicon luciferase reporter, 48 h; higher = more signal
property-label: z-score
No unit in the answer, only the number.

Entry under review: CC(C)OC(=O)C=C1C[C@@H](c2cccc(Cl)c2)O[C@@H](c2cccc(Cl)c2)O1 . Reported z-score?
-0.825

Thanks! And COc1cc2c(cc1OC)CN(C(=O)[C@H]1[C@@H]3C(=O)O[C@@H](c4ccccc4)[C@@H](c4ccccc4)N3[C@@H](c3ccccc3OCCO)[C@]13C(=O)Nc1ccc(C#CCCO)cc13)CC2 ?
-1.79

Thanks! And O=C1C2C=CC(C(O)c3ccc(F)cc3)N(Nc3ccc([N+](=O)[O-])cc3)C2C(=O)N1c1ccccc1 (centres undefined) ?
-1.03

More entries:
Entry under review: CN(C)C(=O)[C@]1(Cc2ccccc2)N=C(c2ccc(OCCCO)cc2)O[C@@H]1c1ccccc1N=[N+]=[N-] . Reported z-score?
-2.58

----------
tested-system: Torsin-1A-interacting protein 1 (Homo sapiens) (UniProt Q5JTV8)
Sequence (Q5JTV8 whole entry, looked up): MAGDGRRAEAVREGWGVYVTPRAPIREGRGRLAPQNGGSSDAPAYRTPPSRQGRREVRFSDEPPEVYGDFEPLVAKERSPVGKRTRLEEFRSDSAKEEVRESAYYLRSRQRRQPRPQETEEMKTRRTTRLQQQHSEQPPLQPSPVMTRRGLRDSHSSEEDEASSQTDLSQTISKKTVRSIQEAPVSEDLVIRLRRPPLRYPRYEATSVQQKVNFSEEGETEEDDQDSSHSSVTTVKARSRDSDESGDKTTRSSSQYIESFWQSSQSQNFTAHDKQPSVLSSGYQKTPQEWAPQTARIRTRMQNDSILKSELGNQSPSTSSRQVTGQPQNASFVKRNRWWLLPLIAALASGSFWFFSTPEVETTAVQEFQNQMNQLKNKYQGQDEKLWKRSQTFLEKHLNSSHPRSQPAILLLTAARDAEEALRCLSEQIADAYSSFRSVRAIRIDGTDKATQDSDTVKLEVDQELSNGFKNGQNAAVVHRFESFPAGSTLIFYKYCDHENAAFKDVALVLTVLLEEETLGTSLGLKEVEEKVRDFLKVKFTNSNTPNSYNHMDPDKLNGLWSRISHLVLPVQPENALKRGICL
experiment-summary: compound microarray binding of lysate hLAP1 – cell lysate, small-molecule microarray, COS7 lysate, 635/667 nm fluorescence, primary screen (AID 1116)
experimental-parameters: 635 nm fluorescence, higher = more signal
// class assignment uses composite z-score with these ranges: range A (below 0.5), range B (0.5 to below 1), range C (1 or more)

Example results:
Sort CC(CO)N1C(=O)[C@@H]2C3C(=O)OCCC/C=C\[C@H]3OC23C=CCN(CCN2CCOCC2)C(=O)[C@@H]13 (some centres undefined) into one of the categories.
range A

Thanks! And COCCOC(=O)N1C(=O)[C@@]2(c3cc(C#CC4(O)CCCCCC4)ccc31)[C@H](C(=O)Nc1nc3ccccc3s1)[C@H]1C(=O)O[C@H](c3ccccc3)[C@H](c3ccccc3)N1[C@@H]2c1ccccc1OCCO ?
range B

Thanks! And COCCCNC(=O)[C@]1(Cc2ccccc2)N=C(c2ccc(OCCCO)cc2)O[C@@H]1c1ccccc1CN=[N+]=[N-] ?
range C

Thanks! And CCCCN1CC=CC23O[C@@H]4C=CCOC(=O)[C@@H]4[C@H]2C(=O)N(CCCCCCO)[C@@H]3C1=O (some centres undefined) ?
range C

Thanks! And NC(=O)NCC#Cc1ccc2c(c1)[C@]1(C(=O)N2)[C@H](C(=O)O)[C@H]2C(=O)O[C@H](c3ccccc3)[C@H](c3ccccc3)N2[C@@H]1c1ccc(O)cc1 ?
range A

More entries:
Sort COC(=O)[C@@]1(Cc2ccccc2)[C@H]2c3cc(C(=O)N(C)C)n(CCc4c[nH]c5ccc(O)cc45)c3C[C@H]2CN1C(=O)c1ccccc1 into one of the categories.
range C

Thanks! And O=C1OCC=C[C@H]2OC34C=CCN(Cn5nnc6ccccc65)C(=O)[C@H]3N(CCCCCO)C(=O)[C@@H]4[C@@H]12 (some centres undefined) ?
range C

Thanks! And COC(=O)[C@@]1(Cc2ccccc2)[C@H]2c3cc(C(=O)N4CCCC4)n(Cc4ccc(O)c(OC)c4)c3C[C@H]2CN1C(=O)c1ccccc1 ?
range B

----------
tested-system: Alpha-bungarotoxin (Bungarus multicinctus) (UniProt P60615)
Sequence (P60615 whole entry, looked up): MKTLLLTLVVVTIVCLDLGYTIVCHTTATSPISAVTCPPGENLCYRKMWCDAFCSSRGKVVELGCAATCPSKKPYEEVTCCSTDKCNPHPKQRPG
experiment-summary: compounds binding labelled alpha-BTX control protein – biochemical, small-molecule microarray, Alexa647 label, 635/667 nm fluorescence, artefact control for SMM control protein annotation, profiling panel (AID 1117)
experimental-parameters: alpha-BTX-A647 binding fluorescence, higher = more signal
The label depends only on composite z-score: y if it is at least 0.6, n if it is smaller.

Example results:
Exam item: decide whether the reported composite z-score for CCOc1ccc(N2C(=O)CSC2c2cccc([N+](=O)[O-])c2)cc1 (stereo not given) is at least 0.6.
y

Thanks! And C=CC[C@]1(C(=O)N2CCOCC2)N=C(c2ccc(OCCCO)cc2)O[C@H]1c1ccccc1N=[N+]=[N-] ?
y

Thanks! And NC(=O)[C@@]1(Cc2ccccc2)N=C(c2ccc(OCCCO)cc2)O[C@H]1c1ccccc1 ?
n

# next molecule below
Exam item: decide whether the reported composite z-score for CCOC(=O)C1=C[C@@H](C(C)C)N(S(=O)(=O)c2ccc(C)cc2)[C@H]1c1ccccc1F is at least 0.6.
y

----------
experiment-summary: probe aXIP binding to arrayed compounds – biochemical, NeuroSMM set, 635/667 nm fluorescence, primary screen (AID 1119);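 also: probe is the protein aXip251-270 applied at 1 µg/mL to compound-printed slides; binding of probe to printed compounds measured as 667 nm fluorescence plus signal to noise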
experimental-parameters: small-molecule microarray, higher = more signal, called active from +8 up or from −8 down
Examples of molecules with documented composite Z-score follow.
No unit in the answer, only the number.

Entry under review: CCCCC(=C=CC[C@@H](O)c1cccc(OCCO)c1)C[C@@H](O)c1ccccn1 . Reported composite Z-score?
0.216

Thanks! And C=CCNC(=O)[C@H]1[C@@H]2C(=O)O[C@@H](c3ccccc3)[C@@H](c3ccccc3)N2[C@@H](c2ccc(OCCO)cc2)[C@]12C(=O)Nc1ccc(C#CCC(C(=O)OC)C(=O)OC)cc12 ?
0.612

Thanks! And COc1ccc(CCNC(=O)[C@@]2(c3ccc([N+](=O)[O-])cc3)CC(=O)N(CC34CC5CC(CC(C5)C3)C4)[C@@H]2c2ccc(CO)cc2I)cc1 ?
-0.355

Thanks! And COc1ccc(NC(=O)O[C@H]2[C@H](OC(=O)c3cc4ccccc4[nH]3)[C@@H](OC(=O)c3cc4ccccc4[nH]3)[C@@H](OC)O[C@@H]2CO)cc1 ?
0.561

Thanks! And C=C(CCCC)/C(=C/C[C@H](OC(=O)c1ccncc1)c1ccc(OCCO)cc1)c1cc(C(=O)OC)ccc1OC ?
0.219

More entries:
Entry under review: C#CCNCc1ccccc1 . Reported composite Z-score?
0.204

Thanks! And CC(c1ccccc1)C(O)C1C=CC2C(=O)N(C)C(=O)C2N1NC(=O)OC(C)(C)C (stereo not given) ?
0.741

----------
experiment-summary: growth of efflux-deficient E. coli DRC39 – strain DRC39, OD650, 48 h, E. coli filamentation inducers, primary screen (AID 1179);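 also: screen aims at cell division blockers that make cells filament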
experimental-parameters: E. coli DRC39 delta-acrAB growth, higher = more signal, called active from +8 up or from −8 down
The label depends only on z-score: Fulfilled if it is at least 0.7, Not fulfilled if it is smaller.

Exam item: decide whether the reported z-score for CCCNC(=O)[C@@]1(Sc2ccc(C)cc2)CC(=O)N(Cc2ccccc2C(F)(F)F)[C@@H]1c1ccc(CO)cc1I is at least 0.7.
Not fulfilled

Thanks! And COc1ccc([Si](C)(C)[C@@H]2[C@@H](CCn3cc([C@H](O)c4ccccc4)nn3)O[C@]3(C(=O)N(Cc4cccc(N5CCC5=O)c4)c4ccccc43)[C@H]2C)cc1 ?
Not fulfilled

Thanks! And Cc1ccc(/C=C/C=O)cc1 ?
Not fulfilled

More entries:
Exam item: decide whether the reported z-score for NCCCCCCNC(=O)[C@H]1C[C@H]2C(=O)N[C@@H](Cc3ccccc3)C(=O)N2[C@H]1c1cccc(OCCO)c1 is at least 0.7.
Fulfilled

Thanks! And O=C1[C@H]2C=C(I)[C@H](C[C@@H]2OCCCCO)[C@@]12CO2 ?
Not fulfilled

Thanks! And C=CCC(OC(C)=O)[C@@H]1[C@@H](N(Cc2cc3ccccc3o2)C(=O)Cc2ccc(OC)cc2)c2cc(OCCCO)ccc2N1C(=O)c1ccc2ccccc2c1 (stereo not given in full) ?
Not fulfilled

Thanks! And [N-]=[N+]=NCc1ccccc1[C@@H]1OC(c2ccc(OCCCO)cc2)=N[C@]1(CCS(=O)(=O)c1ccccc1)C(=O)N1CCCCC1 ?
Not fulfilled

Thanks! And C=CC[C@]1(C(=O)N2CCOCC2)N=C(c2ccc(OCCCO)cc2)O[C@H]1c1ccccc1N=[N+]=[N-] ?
Fulfilled

Thanks! And COC(=O)c1c(CC[C@@H](CO)NC(=O)N[C@@H](Cc2ccccc2)Cn2cc(-c3ccccn3)nn2)oc(C(=O)N2CCOCC2)c1C(=O)OC ?
Not fulfilled

Thanks! And O=C1C[C@@](C(=O)NCc2ccccc2)(c2ccc([N+](=O)[O-])cc2)[C@@H](c2ccc(CO)cc2)N1CC12CC3CC(CC(C3)C1)C2 ?
Not fulfilled

Thanks! And COc1ccc([Si](C)(C)[C@H]2[C@H](CCO)O[C@@]3(C(=O)N(Cc4ccccc4)c4ccc(N5CCCCC5=O)cc43)[C@@H]2C)cc1 ?
Not fulfilled

Thanks! And NCCCCCNC(=O)[C@H]1C[C@H]2C(=O)N[C@@H](Cc3ccccc3)C(=O)N2[C@H]1c1cccc(OCCO)c1 ?
Not fulfilled

Thanks! And COC(=O)c1c(CC[C@@H](CO)NC(=O)NCCc2c[nH]c3ccccc23)oc(C(=O)Cc2ccccc2)c1C(=O)OC ?
Fulfilled
